TARGET OF ASSAY: JAK1 (recombinant purified GST-tagged catalytic domain) (Homo sapiens (Human), UniProt P23458)
Sequence (P23458 875-1153): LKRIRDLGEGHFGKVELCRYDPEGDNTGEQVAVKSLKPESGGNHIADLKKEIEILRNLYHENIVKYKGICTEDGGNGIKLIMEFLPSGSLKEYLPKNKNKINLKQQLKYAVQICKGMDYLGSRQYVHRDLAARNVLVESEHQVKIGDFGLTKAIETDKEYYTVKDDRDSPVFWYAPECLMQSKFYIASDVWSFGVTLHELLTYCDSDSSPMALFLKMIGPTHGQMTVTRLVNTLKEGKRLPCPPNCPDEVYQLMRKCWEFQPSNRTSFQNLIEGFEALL
ASSAY INFO: biochemical
EXPERIMENTAL READOUT: IC50 (nM)

Worked cases, answers included:
>>> number("N#C[C@@H]1C[C@H](OCC2CC2)CC[C@H]1n1cc(C(N)=O)c(Nc2ccnc(F)c2)n1 (single isomer, unassigned)")
6
>>> number("C[C@@H]1C[C@@H](C)N1[C@@H]1CC[C@H](n2cc(C(N)=O)c(Nc3ccc(C(F)(F)F)cc3)n2)[C@@H](C#N)C1 (single isomer, unassigned)")
15
>>> number("CC1(O)CN(C(=O)[C@H]2CC[C@H](n3cc(C(N)=O)c(Nc4ccc(Cl)cc4)n3)[C@@H](C#N)C2)C1 (single isomer, unassigned)")
10
>>> number("N#C[C@H]1C[C@@H](O)CC[C@@H]1n1cc(C(N)=O)c(Nc2ccc(C(F)(F)F)cc2)n1 (single isomer, unassigned)")
5
>>> number("N#C[C@H]1C[C@@H](O)CC[C@@H]1n1cc(C(N)=O)c(Nc2ccc(Cl)c(Cl)c2)n1 (single isomer, unassigned)")
2
>>> number("N#C[C@H]1C[C@H](N[C@H](C2CC2)C(F)(F)F)CC[C@@H]1n1cc(C(N)=O)c(Nc2ccc(C(F)(F)F)cc2)n1 (single isomer, unassigned)")
165
>>> number("CN(C)[C@H]1CC[C@H](n2cc(C(N)=O)c(Nc3ccccc3)n2)[C@@H](C#N)C1 (single isomer, unassigned)")
0.65
>>> number("CC(=O)O[C@H]1C[C@H](C#N)[C@@H](n2cc(C(N)=O)c(Nc3ccc(C(F)(F)F)cc3)n2)C[C@@H]1O")
20
>>> number("N#C[C@@H]1CCCC[C@H]1n1cc(C(N)=O)c(Nc2ccc(F)nc2)n1 (single isomer, unassigned)")
11

P: N#C[C@H]1C[C@@H](N2CCC2)CC[C@@H]1n1cc(C(N)=O)c(Nc2ccc(OC(F)F)cc2)n1 (single isomer, unassigned) [Example 28-103]
Q: N#C[C@H]1C[C@@H](N2CCC2)CC[C@@H]1n1cc(C(N)=O)c(Nc2ccc(Cl)cc2)n1 (single isomer, unassigned)
R: N#C[C@H]1C[C@@H](N2CC(F)C2)CC[C@@H]1n1cc(C(N)=O)c(Nc2ccc(C(F)(F)F)cc2)n1 (single isomer, unassigned)
S: CN(CCC(F)(F)F)[C@H]1CC[C@H](n2cc(C(N)=O)c(Nc3ccc(S(=O)(=O)C(F)(F)F)cc3)n2)[C@@H](C#N)C1 (single isomer, unassigned)
T: C[N+]1([C@H]2CC[C@H](n3cc(C(N)=O)c(Nc4ccc(C(F)(F)F)cc4)n3)[C@@H](C#N)C2)CCC1 (single isomer, unassigned)
Please give the order of these molecules when sorted by IC50, largest value leading. Provide the labels, sequenced as the question asks.
P, R, S, Q, T

---

TARGET OF ASSAY: JAK1 (recombinant purified GST-tagged catalytic domain) (Homo sapiens (Human), UniProt P23458);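 note: biochemical assay with HTRF read-out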
ASSAY INFO: biochemical
EXPERIMENTAL READOUT: IC50 (nM)

Worked cases, answers included:
>>> number("CC(C)(CF)c1ccc(Nc2nn([C@H]3CC[C@@H](O)C[C@@H]3C#N)cc2C(N)=O)cc1 (single isomer, unassigned) [Example 25-9]")
1
>>> number("N#C[C@H]1CCCC[C@@H]1n1cc(C(N)=O)c(Nc2ccc(S(=O)(=O)NCc3cccnc3)cc2)n1 (single isomer, unassigned) [Example 17-84]")
0.3
>>> number("N#C[C@H]1C[C@H](N2CC3(CCC3)C2)CC[C@@H]1n1cc(C(N)=O)c(Nc2ccnc(F)c2)n1 (single isomer, unassigned) [Example 28-143]")
1
>>> number("N#C[C@@H]1C[C@H](C(=O)NC2CC(F)(F)C2)CC[C@H]1n1cc(C(N)=O)c(Nc2ccc(Cl)cc2)n1 (single isomer, unassigned) [Example 35-18]")
13

P: Cc1noc(-c2ccc(Nc3nn([C@H]4CCCC[C@@H]4C#N)cc3C(N)=O)cc2)n1 (racemic) [Example 17-6]
Q: N#C[C@H]1C[C@@H](N2CCC2)CC[C@@H]1n1cc(C(N)=O)c(Nc2ccc(CC(F)(F)F)cc2)n1 (single isomer, unassigned) [Example 28-69]
Which numeric IC50 is bigger, that of P or that of Q ? Your answer should be the label attached to the chosen record.
P

---

TARGET OF ASSAY: JAK2 (recombinant purified GST-tagged catalytic domain) (Homo sapiens (Human), UniProt O60674)
Sequence (O60674 849-1124): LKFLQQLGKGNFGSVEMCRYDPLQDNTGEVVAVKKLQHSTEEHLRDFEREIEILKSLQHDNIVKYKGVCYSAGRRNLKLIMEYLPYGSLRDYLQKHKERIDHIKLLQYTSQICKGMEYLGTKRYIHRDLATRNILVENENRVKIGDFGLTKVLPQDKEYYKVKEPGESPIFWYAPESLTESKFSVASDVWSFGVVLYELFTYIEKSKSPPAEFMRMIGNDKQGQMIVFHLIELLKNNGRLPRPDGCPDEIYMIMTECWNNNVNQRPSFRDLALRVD
ASSAY INFO: biochemical
pIC50: −log10 of the molar value.
EXPERIMENTAL READOUT: pIC50

Worked cases, answers included:
>>> number("CCS(=O)(=O)c1ccc(Nc2nn(C3CCCC[C@@H]3C#N)cc2C(N)=O)cc1 (mixture of isomers) [Example 17-10]")
8.40
>>> number("N#C[C@H]1C[C@@H](C(=O)NC2CCC2)CC[C@@H]1n1cc(C(N)=O)c(Nc2ccc(Cl)cc2)n1 (single isomer, unassigned) [Example 35-12]")
6.99
>>> number("N#C[C@@H]1C[C@H](C(=O)N2CC3(COC3)C2)CC[C@H]1n1cc(C(N)=O)c(Nc2ccc(Cl)cc2)n1 (single isomer, unassigned) [Example 35-36]")
6.95
>>> number("N#C[C@H]1C[C@@H](N2CC(F)C2)CC[C@@H]1n1cc(C(N)=O)c(Nc2ccc(S(=O)(=O)C(F)(F)F)cc2)n1 (single isomer, unassigned) [Example 28-113]")
7.89

I: N#C[C@@H]1C[C@H](OCC2CC2)CC[C@@H]1n1cc(C(N)=O)c(Nc2ccnc(F)c2)n1 (single isomer, unassigned) [Example 26-4]
II: N#C[C@H]1CCCC[C@@H]1n1cc(C(N)=O)c(Nc2cccnc2)n1 (racemic) [Example 17-13]
For the pair I and II , which member has the lower pIC50 number? Your answer should be the label attached to the chosen record.
I

---

TARGET OF ASSAY: JAK2 (recombinant purified GST-tagged catalytic domain) (Homo sapiens (Human), UniProt O60674)
ASSAY INFO: biochemical
pIC50: −log10 of the molar value.
EXPERIMENTAL READOUT: pIC50

>>> number("N#C[C@H]1C[C@H](O)CC[C@@H]1n1cc(C(N)=O)c(Nc2ccc([C@@H](O)C(F)(F)F)cc2)n1 (single isomer, unassigned)")
8.52
>>> number("N#C[C@@H]1C[C@@H](NC2CC3(CCCC3)C2)CC[C@H]1n1cc(C(N)=O)c(Nc2ccc(C(F)(F)F)cc2)n1 (single isomer, unassigned)")
6.18
>>> number("N#C[C@H]1C[C@H](N2CC3(CCC3)C2)CC[C@@H]1n1cc(C(N)=O)c(Nc2ccnc(F)c2)n1 (single isomer, unassigned)")
6.91

a: N#C[C@H]1CCCC[C@@H]1n1cc(C(N)=O)c(Nc2ccc(CN)cc2)n1 (racemic)
b: Cc1noc(-c2ccc(Nc3nn([C@H]4CCCC[C@@H]4C#N)cc3C(N)=O)cc2)n1 (racemic)
For the pair a and b , which member has the lower pIC50 number? Your answer should be the label attached to the chosen record.
b
(b: 7.60, a: 8.00)

---

TARGET OF ASSAY: JAK2 (recombinant purified GST-tagged catalytic domain) (Homo sapiens (Human), UniProt O60674)
ASSAY INFO: biochemical
EXPERIMENTAL READOUT: IC50 (µM)

>>> number("N#C[C@H]1CCCC[C@@H]1n1cc(C(N)=O)c(Nc2ccc(S(=O)(=O)NCc3ccccc3Cl)cc2)n1 (single isomer, unassigned)")
0.002

1: CC1(O)CN([C@H]2CC[C@H](n3cc(C(N)=O)c(Nc4ccc(C(F)(F)F)cc4)n3)[C@@H](C#N)C2)C1 (single isomer, unassigned)
2: N#C[C@H]1C[C@@H](N[C@H](C2CC2)C(F)(F)F)CC[C@@H]1n1cc(C(N)=O)c(Nc2ccc(C(F)(F)F)cc2)n1 (single isomer, unassigned)
For the pair 1 and 2 , which member has the lower IC50 number? Your answer should be the label attached to the chosen record.
1
(1: 0.003 µM, 2: 0.067 µM)

---

TARGET OF ASSAY: JAK2 (recombinant purified GST-tagged catalytic domain) (Homo sapiens (Human), UniProt O60674);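 note: biochemical JAK kinase assay with HTRF detection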
ASSAY INFO: biochemical
pIC50: −log10 of the molar value.
EXPERIMENTAL READOUT: pIC50

Worked cases, answers included:
>>> number("N#C[C@@H]1C[C@H](OCC2CC2)CC[C@H]1n1cc(C(N)=O)c(Nc2ccc([C@@H](O)C(F)(F)F)cc2)n1 (single isomer, unassigned) [Example 26-8]")
7.72
>>> number("N#C[C@H]1CC(N2CC[C@H](F)C2)CC[C@@H]1n1cc(C(N)=O)c(Nc2ccc(S(=O)(=O)C(F)(F)F)cc2)n1 (single isomer, unassigned) [Example 28-158]")
7.77
>>> number("C[N+]1([C@H]2CC[C@H](n3cc(C(N)=O)c(Nc4ccc(C(F)(F)F)cc4)n3)[C@@H](C#N)C2)CCC1 (single isomer, unassigned) [Example 31-1]")
7.48

1: CN[C@H]1CC[C@H](n2cc(C(N)=O)c(Nc3ccc(Cl)c(F)c3)n2)[C@@H](C#N)C1 (single isomer, unassigned) [Example 28-43]
2: C[C@H](N[C@H]1CC[C@H](n2cc(C(N)=O)c(Nc3ccc(C(F)(F)F)nc3)n2)[C@@H](C#N)C1)C1CC1 (single isomer, unassigned) [Example 28-8]
For the pair 1 and 2 , which member has the lower pIC50 number? Your answer should be the label attached to the chosen record.
2
(2: 6.70, 1: 7.59)
